Test system: LOX IMVI melanoma
assay.info: NCI tumour cell line growth inhibition, 48 h
Respond with Fulfilled for TGI values of 30 µM and above, Not fulfilled for values below.

Could you please find out whether Cc1cc(N(CCC#N)CCC#N)ccc1/C=C\C(=O)Nc1ccccc1 has TGI that meets 30 µM or exceeds it?
Fulfilled

// inclusive: TGI at least 30 µM? input: CC(C)[C@]12O[C@H]1[C@@H]1O[C@@]13[C@@]1(C)CCC4=C(COC4=O)[C@@H]1C[C@@H]1O[C@@]13C2=O
Fulfilled

Determine whether this compound has TGI no lower than 30 µM: CN(C)CCC=C1c2ccccc2C=Cc2ccccc21
Fulfilled

Please tell me: is the compound O=C(O)c1cc(C(=O)O)nc(C(=O)O)c1 at or over 30 µM in terms of TGI?
Fulfilled

Please check the record O=c1c2cc(F)ccc2sc2c(N3CCNCC3)nc3ccccc3c12 and state if its TGI is at or above 30 µM.
Not fulfilled

Determine whether measured TGI meets or exceeds 30 µM for O=C(N/N=C/c1ccccc1O)c1ccccc1O
Fulfilled

Hi, just wondering whether Cc1cc(S(=O)(=O)n2ccnc2Oc2cccc(Cl)c2)c(SSc2cc(Cl)c(C)cc2S(=O)(=O)n2ccnc2Oc2cccc(Cl)c2)cc1Cl shows TGI of 30 µM or higher.
Fulfilled

Hi team, for [C-]#[N+][C@@H]1C2[C@H](CC[C@@]1(C)O)C(=C)CC[C@@H]2[C@@]1(C)CC[C@H](Cl)C(C)(C)O1 (some centres not stated) , is the recorded TGI at or above 30 µM?
Not fulfilled

Kindly determine if TGI recorded for N=C(N)N=Nc1ccc(NN=C(N)N)c2c1ncc1c2nc2sccn21 is above or exactly 30 µM.
Fulfilled
